B1: PKD2L1 (parent)
chain: YSGGGYYLDLPGSRQGSAEALRAL

# Variants of: B1
# procedure summary: protein stability index of a GFP-peptide fusion (GPS, HEK-293T) (PSI 1-6); higher = more stable;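 note: lentivirally expressed fusions sorted by FACS into six bins by GFP to DsRed ratio, PSI derived from sequencing read proportions per bin multiplied by bin number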
# protocol conditions: c terminus: a fixed tail appended
test readout: protein stability index
Just the number, please, no unit attached.

mutant code	test readout	result value
Y7A	protein stability index	2.17

Consider now this further variant.
I'd like to know its protein stability index. The variant in question is S17E
2

All values here come from the supplement of paper PMC10567573.
